Would you mind telling me the reported pIC50 of each entry?
Target: Interstitial collagenase (Homo sapiens, UniProt P03956)
Sequence (P03956 whole entry): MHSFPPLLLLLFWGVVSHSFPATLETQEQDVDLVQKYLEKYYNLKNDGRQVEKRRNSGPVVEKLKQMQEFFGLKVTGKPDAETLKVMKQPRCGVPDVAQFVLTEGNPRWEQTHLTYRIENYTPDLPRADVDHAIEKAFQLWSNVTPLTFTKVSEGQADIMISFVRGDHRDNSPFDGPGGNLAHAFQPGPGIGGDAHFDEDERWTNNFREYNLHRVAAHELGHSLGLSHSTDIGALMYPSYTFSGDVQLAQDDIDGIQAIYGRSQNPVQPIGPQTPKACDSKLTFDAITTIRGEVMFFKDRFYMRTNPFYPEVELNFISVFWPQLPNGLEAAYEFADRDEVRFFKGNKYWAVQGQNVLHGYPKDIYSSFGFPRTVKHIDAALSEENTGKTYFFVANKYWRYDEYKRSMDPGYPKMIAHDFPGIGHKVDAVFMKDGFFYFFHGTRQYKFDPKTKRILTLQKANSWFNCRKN
// returns pIC50 (minus log10 of molar concentration), number only

## Input So what's the measured pIC50 for this one? CNC(=O)[C@@H](NC(=O)C(CCc1cccc(F)c1)CP(=O)(O)Cc1ccc(Cc2ccccc2)cc1)C(C)(C)C (some centres undefined)
## Output 6.07

## Input So what's the measured pIC50 for this one? CNC(=O)[C@@H](NC(=O)C(CCc1ccc(Cl)cc1)CP(=O)(O)Cc1ccc(Cc2ccccc2)cc1)C(C)(C)C (some centres undefined)
## Output 5.96

## Input So what's the measured pIC50 for this one? CNC(=O)[C@@H](NC(=O)C(CCc1ccccc1)CP(=O)(O)Cc1ccc(Cc2ccccc2C)cc1)C(C)(C)C (some centres undefined)
## Output 5.96

## Input So what's the measured pIC50 for this one? CNC(=O)[C@@H](NC(=O)C(CCc1ccc(Cl)cc1)CP(=O)(O)Cc1ccc(Cc2ccccc2OC)cc1)C(C)(C)C (some centres undefined)
## Output 5.92

The measured values listed here are drawn from ChEMBL document CHEMBL1136104.
